Biological target: QPCTL (Homo sapiens (Human), UniProt Q9NXS2)
Sequence (Q9NXS2 whole entry): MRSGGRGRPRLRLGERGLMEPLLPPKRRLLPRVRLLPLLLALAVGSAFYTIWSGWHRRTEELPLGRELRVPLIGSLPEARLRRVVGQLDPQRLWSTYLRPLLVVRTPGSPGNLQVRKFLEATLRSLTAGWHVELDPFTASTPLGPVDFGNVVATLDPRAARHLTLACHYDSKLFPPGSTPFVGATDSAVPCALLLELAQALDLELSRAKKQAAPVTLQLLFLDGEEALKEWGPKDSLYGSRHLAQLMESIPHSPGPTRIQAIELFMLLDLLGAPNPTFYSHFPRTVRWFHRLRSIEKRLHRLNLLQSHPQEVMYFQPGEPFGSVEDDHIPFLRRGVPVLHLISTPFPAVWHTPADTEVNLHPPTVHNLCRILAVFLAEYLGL
Assay: Inhibition of Cellular QPCTL Activity - FACS flow cytometry, CC2C6 anti-CD47 staining of Ramos cells
Type: cell-based
Settings: Ramos human Burkitts Lymphoma cells, 72-96 hours, % CC2C6-positive cells
Listed molecules paired with reported IC50
property label: IC50

1) Cn1cnnc1C1CCN(c2c(C#N)cccc2-c2cnc(=O)n(C)c2)CC1 [Example 34] = 1000 to 10000 nM
2) Cn1cnnc1C1CCN(c2c(C#N)cccc2-c2ccc3ocnc3c2)CC1 [Example 15] = 1000 to 10000 nM
3) COc1ccncc1-c1cccc(C#N)c1N1CCC(c2nncn2C)CC1 [Example 3] = 100 to 1000 nM
4) Cn1cnnc1C1CCN(c2c(C#N)cccc2-c2cnccc2OCCO)CC1 [Example 9] = 1000 to 10000 nM
5) Cn1cnnc1C1CCN(c2c(C#N)cccc2-c2cccnc2)CC1 [Example 2] = 100 to 1000 nM
6) Cn1cnnc1C1CCN(c2c(-c3ccnnc3)ccc(Cl)c2C#N)CC1 [Example 33] = < 100 nM
7) Cn1cnnc1C1CCN(c2c(C#N)cccc2-c2ccc3nonc3c2)CC1 [Example 19] = 1000 to 10000 nM
8) Cn1cnnc1C1CCN(c2c(C#N)cccc2-c2cncc3c2ccn3C)CC1 [Example 12] = 1000 to 10000 nM
9) COc1ccncc1-c1ccc(OC)c(C#N)c1N1CCC(c2nncn2C)CC1 [Example 25] = 100 to 1000 nM
